The reported numbers originate from patent US11713338B2.

Kindly state IC50 for each of the entries shown.
- TARGET_OR_SYSTEM: integrin α4β7 (RPMI8866 human cells adhering to MAdCAM-1) (Homo sapiens, UniProt P13612+P26010)
- Construct: RMP18866 cells, which express integrin α4β7; host or cells: RPMI8866
- Sequence (P13612 34-1032): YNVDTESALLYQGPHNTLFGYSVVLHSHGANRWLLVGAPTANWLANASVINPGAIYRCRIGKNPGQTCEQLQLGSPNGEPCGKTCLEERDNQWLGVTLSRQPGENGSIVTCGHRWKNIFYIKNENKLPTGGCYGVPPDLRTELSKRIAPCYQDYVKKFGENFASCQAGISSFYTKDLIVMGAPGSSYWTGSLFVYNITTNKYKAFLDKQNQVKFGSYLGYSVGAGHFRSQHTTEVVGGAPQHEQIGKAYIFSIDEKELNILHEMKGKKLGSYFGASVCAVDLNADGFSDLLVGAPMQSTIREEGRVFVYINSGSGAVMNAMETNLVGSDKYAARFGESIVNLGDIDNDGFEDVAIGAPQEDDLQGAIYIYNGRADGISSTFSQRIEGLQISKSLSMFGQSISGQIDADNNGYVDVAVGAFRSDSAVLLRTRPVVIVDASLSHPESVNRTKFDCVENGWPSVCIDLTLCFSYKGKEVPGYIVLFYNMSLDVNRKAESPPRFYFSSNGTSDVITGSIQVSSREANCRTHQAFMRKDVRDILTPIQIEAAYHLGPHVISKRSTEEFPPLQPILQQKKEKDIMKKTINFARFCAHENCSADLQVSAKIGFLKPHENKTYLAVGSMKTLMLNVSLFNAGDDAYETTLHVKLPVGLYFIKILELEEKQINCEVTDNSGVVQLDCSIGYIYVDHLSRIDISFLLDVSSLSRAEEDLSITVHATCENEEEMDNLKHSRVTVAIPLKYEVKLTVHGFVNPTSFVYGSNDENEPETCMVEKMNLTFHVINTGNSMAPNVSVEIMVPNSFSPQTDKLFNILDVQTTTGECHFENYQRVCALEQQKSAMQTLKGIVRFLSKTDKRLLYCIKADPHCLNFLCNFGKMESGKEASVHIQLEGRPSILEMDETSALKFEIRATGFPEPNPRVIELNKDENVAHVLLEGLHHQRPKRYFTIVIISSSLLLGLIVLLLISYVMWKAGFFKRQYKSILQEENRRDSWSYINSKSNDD
- Sequence (P26010 20-798): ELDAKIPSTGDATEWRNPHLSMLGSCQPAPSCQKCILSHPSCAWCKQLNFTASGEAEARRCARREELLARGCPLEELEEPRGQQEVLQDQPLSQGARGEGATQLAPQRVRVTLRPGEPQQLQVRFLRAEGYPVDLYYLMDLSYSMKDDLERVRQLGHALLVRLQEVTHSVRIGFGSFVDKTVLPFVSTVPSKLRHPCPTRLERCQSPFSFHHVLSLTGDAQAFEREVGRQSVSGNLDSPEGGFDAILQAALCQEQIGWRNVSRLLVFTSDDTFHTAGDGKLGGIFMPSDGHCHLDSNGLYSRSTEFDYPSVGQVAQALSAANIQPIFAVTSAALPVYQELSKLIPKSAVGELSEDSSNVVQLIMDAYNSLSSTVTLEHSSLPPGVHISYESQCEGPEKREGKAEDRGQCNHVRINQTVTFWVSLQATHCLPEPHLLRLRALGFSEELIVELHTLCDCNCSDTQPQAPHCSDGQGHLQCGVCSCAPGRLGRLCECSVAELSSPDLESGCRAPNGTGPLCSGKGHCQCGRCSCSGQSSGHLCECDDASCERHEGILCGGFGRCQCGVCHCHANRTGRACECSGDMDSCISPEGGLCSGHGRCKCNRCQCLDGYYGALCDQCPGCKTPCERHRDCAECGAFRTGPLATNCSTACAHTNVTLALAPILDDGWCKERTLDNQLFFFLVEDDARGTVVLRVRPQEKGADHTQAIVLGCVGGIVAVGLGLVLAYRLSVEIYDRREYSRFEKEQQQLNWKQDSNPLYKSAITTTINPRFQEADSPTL
- ASSAY_EXPLANATION: Integrin α4β7-MAdCAM cell adhesion assay (RPMI8866 cells)
- Type: cell-based
- ASSAY_CONTEXT: RPMI8866 cells adhering to MAdCAM; read-out: RPMI8866 Adhesion α4β7/MAdCAM IC50
- Description: Integrin α4β7-MAdCAM Cell Adhesion Assay RPMI8866 cells were resuspended at 10 million cells/ml in PBS containing […] and incubated at 37° C. for 30 min in a 50 ml tube. […] The plate was emptied by inverting and blotting on paper towels and washed manually twice with PBS. 100 μl PBS was then added to each well. […] To calculate the dose response, the fluorescence value of control wells not containing cells was subtracted from each test well.
Include the unit after the number when you answer.

{"columns": ["QUERY_SMILES", "REPORTED_VALUE"],
 "data": [
  ["CC(C)C[C@@H]1NC(=O)c2ccc(-c3ccc(N4CCN(C(=O)CCCCCCCCCCC(=O)N5CCN(c6ccc(-c7ccc8cc7CNC(=O)[C@@H]7CCCN7[C@H](C(=O)NC(C)(C)C)[C@H](C)NC(=O)[C@H]([C@@H](C)O)NC(=O)[C@H](CC(=O)O)NC(=O)[C@H](CC(C)C)NC8=O)cc6)CC5)CC4)cc3)c(c2)CNC(=O)[C@@H]2CCCN2[C@H](C(=O)NC(C)(C)C)[C@H](C)NC(=O)[C@H]([C@@H](C)O)NC(=O)[C@H](CC(=O)O)NC1=O", "28 nM"]
]}

Let's switch to this compound now.
Return value of IC50 for input CC(C)C[C@@H]1NC(=O)c2ccc(-c3ccc(N4CCN(C(=O)CC[C@H](N)C(=O)N5CCN(c6ccc(-c7ccc8cc7CNC(=O)[C@@H]7CCCN7[C@H](C(=O)NC(C)(C)C)[C@H](C)NC(=O)[C@H]([C@@H](C)O)NC(=O)[C@H](CC(=O)O)NC(=O)[C@H](CC(C)C)NC8=O)cc6)CC5)CC4)cc3)c(c2)CNC(=O)[C@@H]2CCCN2[C@H](C(=O)NC(C)(C)C)[C@H](C)NC(=O)[C@H]([C@@H](C)O)NC(=O)[C@H](CC(=O)O)NC1=O , no commentary. 50 nM
